system.under.test: Carbonic anhydrase 2 (Homo sapiens) (UniProt P00918)
protocol: compounds binding carbonic anhydrase 2 – biochemical, small-molecule microarray, Alexa647-labelled CAII, profiling panel (AID 1122)
condition.parameters: CAII-A647 binding fluorescence, higher = more signal
Assignment: determine reported composite z-score for the given compounds.
Reply: number alone, nothing else.

Measured composite z-score, C=CCC(OC(C)=O)[C@@H]1[C@@H](N(Cc2cccc3ccccc23)C(=O)Cc2ccc(OC)cc2)c2cc(OCCCO)ccc2N1C(=O)c1ccc(-c2ccccc2)cc1 (stereo partly drawn) : -0.0283

Measured composite z-score, COCCOC(=O)N1C(=O)[C@@]2(c3cc(C#CC4(O)CCCCCC4)ccc31)[C@H](c1ccc(O)cc1)N1[C@H](c3ccccc3)[C@H](c3ccccc3)OC(=O)[C@H]1[C@@H]2C(=O)N1CCN(c2ncccn2)CC1 : 0.437

Measured composite z-score, CC(C)NC(=O)[C@@]1(C)c2ccccc2C(=O)N(Cc2ccc(OC(F)(F)F)cc2)[C@H]1c1ccc(CO)cc1 : 0.607

====

System: wheat germ agglutinin (Triticum aestivum), Alexa647-labelled
protocol: Alexa647-WGA lectin binding to printed small molecules – biochemical, small-molecule microarray, 635/667 nm fluorescence, artefact control for SMM control-protein annotation, profiling panel (AID 1140);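 note: score merges 667 nm feature emission with signal to noise over triplicate slides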
condition.parameters: WGA-A647 binding, 635 nm fluorescence, higher = more signal
recorded.metric: composite z-score
Reply: number alone, nothing else.

Measured composite z-score, C=CCN1Cc2ccccc2[C@@H]2OC(c3ccc(OCCCO)cc3)=N[C@]2(CC=C)C1=O : 0.667

Measured composite z-score, NCCCCCNC(=O)[C@H]1C[C@H]2C(=O)N3CCC[C@H]3C(=O)N2[C@H]1c1cccc(OCCO)c1 : 1.29

Measured composite z-score, COC(=O)C/C=C/C[C@]1(O)C(=O)N(C)c2ccccc21 : 0.0278

Measured composite z-score, COC(=O)[C@@]1(Cc2ccc(F)cc2)[C@H]2c3cc(C(=O)N4CCCC4)n(Cc4ccc(C)c(F)c4F)c3C[C@H]2CN1C(=O)c1ccccc1 : 0.921

Measured composite z-score, CN(C)C(=O)[C@@]1(Cc2ccccc2CN=[N+]=[N-])N=C(c2ccc(OCCCO)cc2)O[C@H]1c1ccccc1N=[N+]=[N-] : 1.22

Measured composite z-score, COCCOC(=O)N1C(=O)[C@@]2(c3cc(C#CCCO)ccc31)[C@H](c1ccc(OCCO)cc1)N1[C@H](c3ccccc3)[C@H](c3ccccc3)OC(=O)[C@H]1[C@@H]2C(=O)Nc1nc2ccccc2s1 : 1.13

Measured composite z-score, CCN(CC)c1ccc(N2CC=CC34O[C@@H]5/C=C\CCCOC(=O)C5[C@H]3C(=O)N(C(C)CO)[C@@H]4C2=O)cc1 (stereo partly drawn) : -0.0344

Measured composite z-score, C=C(/C(=C/C[C@H](OC(C)=O)c1ccc(CO)o1)c1cnc2ccccc2c1)C(C)C : 1.33

====

Assignment: determine reported composite z-score for the given compounds.
protocol: probe aDKK1 binding to arrayed compounds – biochemical, biotinylated probe, 635/667 nm fluorescence, primary screen (AID 1099);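 note: score merges 667nm spot fluorescence with signal to noise across triplicate slides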
condition.parameters: small-molecule microarray, higher = more signal
Reply: number alone, nothing else.

Measured composite z-score, CCCCC=C[C@@H](NC(=O)OCc1ccccc1Cl)c1ccccc1 : 1.53

Measured composite z-score, CC(C)c1ccc(NN2C(C(O)c3ccc(C#N)cc3)C=CC3C(=O)N(c4ccccc4)C(=O)C32)cc1 (centres undefined) : 0.935

Measured composite z-score, COc1ccc(C#Cc2ccc3c(c2)[C@]2(C(=O)N3)[C@H](c3ccc(OCCO)cc3)N3[C@H](c4ccccc4)[C@H](c4ccccc4)OC(=O)[C@H]3[C@@H]2C(=O)NC[C@H](O)c2ccccc2)cc1 : 0.0477

Measured composite z-score, CN1C2C=C(CCCO)C(C3C(=O)N(C(N)=O)C(=O)C32)C1C1CC1 (centres undefined) : -0.105

====

protocol: probe aCHRDL2 binding to arrayed compounds – biochemical, biotinylated probe, 635/667 nm fluorescence, primary screen (AID 1100)
condition.parameters: small-molecule microarray, higher = more signal
Kindly return 1.0 if reported composite z-score is no lower than 0.3; return 0.0 if it is lower.

Is the recorded value of composite z-score equal to or greater than 0.3 for this molecule? O=C(NCc1ccc(F)cc1)[C@H]1C[C@H]2C(=O)NCC(=O)N2[C@H]1c1ccc(O)cc1
0.0

Is the recorded value of composite z-score equal to or greater than 0.3 for this molecule? COc1ccc(CCNC(=O)[C@@]2(c3ccc([N+](=O)[O-])cc3)CC(=O)N(C3CCCCC3)[C@@H]2c2ccc(CO)cc2)cc1
1.0

Is the recorded value of composite z-score equal to or greater than 0.3 for this molecule? COc1ccc(C#Cc2ccc3c(c2)[C@]2(C(=O)N3)[C@H](C(=O)O)[C@H]3C(=O)O[C@H](c4ccccc4)[C@H](c4ccccc4)N3[C@@H]2c2ccc(O)cc2)cc1
1.0

Is the recorded value of composite z-score equal to or greater than 0.3 for this molecule? CCCC=C(CCC)[C@@H](NS(=O)(=O)CC12CCC(CC1=O)C2(C)C)c1ccc(C(=O)OC)cc1 (stereo not given in full)
0.0

Is the recorded value of composite z-score equal to or greater than 0.3 for this molecule? CCOc1cc(C(O)C2C=CC3C(=O)NC(=O)C3N2Nc2ccc(Cl)cc2Cl)ccc1O (stereo not given)
1.0

Is the recorded value of composite z-score equal to or greater than 0.3 for this molecule? C=CCN1C(=O)[C@]2(CCS(=O)(=O)c3ccccc3)N=C(c3ccc(OCCCO)cc3)O[C@@H]2c2ccccc21
1.0

Is the recorded value of composite z-score equal to or greater than 0.3 for this molecule? COC(=O)[C@@]1(Cc2ccccc2)[C@H]2c3cc(C(=O)N4CCCC4)n(CCc4ccccn4)c3C[C@H]2CN1C(=O)c1ccccc1
1.0

Is the recorded value of composite z-score equal to or greater than 0.3 for this molecule? COCCOC(=O)N1C(=O)[C@@]2(c3cc(C#CCNC(N)=O)ccc31)[C@H](C(N)=O)[C@H]1C(=O)O[C@H](c3ccccc3)[C@H](c3ccccc3)N1[C@@H]2c1ccccc1OCCO
1.0

Is the recorded value of composite z-score equal to or greater than 0.3 for this molecule? COc1ccc(CCNC(=O)[C@@]2(Cc3ccccc3I)c3ccccc3C(=O)N(C3CCCCC3)[C@H]2c2ccc(CO)cc2)cc1
1.0

Is the recorded value of composite z-score equal to or greater than 0.3 for this molecule? CN1C(=O)C2C=CC(C(O)c3cccn3C)N(Nc3ccc([N+](=O)[O-])cc3[N+](=O)[O-])C2C1=O (stereo not given)
1.0

Is the recorded value of composite z-score equal to or greater than 0.3 for this molecule? COc1cc(NN2C(C(O)c3cc(OC)c(OC)c(OC)c3)C=CC3C(=O)N(C)C(=O)C32)cc(OC)c1OC (stereo not given)
1.0

Is the recorded value of composite z-score equal to or greater than 0.3 for this molecule? NC(=O)NCC#Cc1ccc2c(c1)[C@]1(C(=O)N2)[C@H](C(=O)N2CCN(c3ncccn3)CC2)[C@H]2C(=O)O[C@H](c3ccccc3)[C@H](c3ccccc3)N2[C@@H]1c1ccc(O)cc1
0.0

Is the recorded value of composite z-score equal to or greater than 0.3 for this molecule? COCC(=C=CC[C@H](O)c1ccccc1OCCO)C[C@H](O)c1ccccn1
0.0

Is the recorded value of composite z-score equal to or greater than 0.3 for this molecule? C=C(COC)C(=O)CC[C@@H](OC(C)=O)c1cccc(OCCO)c1
0.0

Is the recorded value of composite z-score equal to or greater than 0.3 for this molecule? CC(C)C(O)C1C=CC2C(=O)N(c3ccccc3)C(=O)C2N1Nc1ccccc1 (stereo not given)
1.0

====

Assignment: determine reported z-score for the given compounds.
protocol: ATP-based viability of Huh7 replicon cells – cell-based, CellTiter-Glo luminescence, basal, 48 h, cytotoxicity control for HCV replication inhibitor project, primary screen (AID 1143);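 note: Huh7 hepatoma cells carrying a hepatitis C replication reporter with no stimulus; test concentration not given here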
condition.parameters: higher = more signal, called active from +8 up or from −8 down
Reply: number alone, nothing else.

Measured z-score, C=CCN1C(=O)[C@]2(CCS(=O)(=O)c3ccccc3)N=C(c3ccc(OCCCO)cc3)O[C@@H]2c2ccccc21 : -3.58

Measured z-score, Cc1ccc(S[C@]2(C(=O)O)CC(=O)N(C3CCCCC3)[C@@H]2c2ccc(CO)cc2I)cc1 : -0.541

Measured z-score, COc1ccc([Si](C)(C)[C@@H]2[C@@H](CC(=O)N(CCO)Cc3ccccc3)O[C@]3(C(=O)N(Cc4cccc(N5CCCCC5=O)c4)c4ccccc43)[C@H]2C)cc1 : -4.76

Measured z-score, CO[C@H]1O[C@H](CO)[C@@H](OC(=O)Nc2ccccc2)[C@H](OC(=O)c2cc3ccccc3[nH]2)[C@H]1OC(=O)c1cc2ccccc2[nH]1 : -4.49

Measured z-score, COCCOC(=O)N1C(=O)[C@@]2(c3cc(C#CC4(O)CCCCCC4)ccc31)[C@H](C(=O)Nc1nc3ccccc3s1)[C@H]1C(=O)O[C@H](c3ccccc3)[C@H](c3ccccc3)N1[C@@H]2c1ccc(O)cc1 : -0.804

Measured z-score, O=C1N(Cc2ccccc2)c2ccccc2C[C@]12N=C(c1ccc(OCCCO)cc1)O[C@@H]2c1ccccc1 : -4.72

Measured z-score, C=CC[C@]1(C(=O)N2CCOCC2)COC(c2ccc(OCCCO)cc2)=N1 : -2.76

Measured z-score, C[N+](C)(C)CCCC[C@@H]1NC(=O)[C@@H]2C[C@H](C(=O)NCCCCCCN)[C@H](c3cccc(OCCO)c3)N2C1=O : 0.279

Measured z-score, COCCOC(=O)N1C(=O)[C@@]2(c3cc(C#CC4(O)CCCCCC4)ccc31)[C@H](c1ccc(O)cc1)N1[C@H](c3ccccc3)[C@H](c3ccccc3)OC(=O)[C@H]1[C@@H]2C(=O)N1CCN(c2ncccn2)CC1 : -1.53

Measured z-score, COc1cc2c(cc1O)C=[N+](Cc1sc3ccccc3c1Cl)CC2 : -2.33

Measured z-score, C=CCOC(=O)[C@@]1(Cc2ccccc2)C[C@H]2CO[C@H](c3ccc(OC)cc3)N2C1=O : -1.08

Measured z-score, CCCC[C@@H]1C[C@H]1[C@@H](NC(=O)c1cccs1)c1ccccc1C(F)(F)F : -1.37

Measured z-score, COc1ccc(C#Cc2ccc3c(c2)[C@]2(C(=O)N3)[C@H](c3ccc(OCCO)cc3)N3[C@H](c4ccccc4)[C@H](c4ccccc4)OC(=O)[C@H]3[C@@H]2C(=O)NC[C@H](O)c2ccccc2)cc1 : -2.47

Measured z-score, CCOC(=O)C[C@H]1[C@H](OC(=O)c2ccc(C(=O)c3ccccc3)cc2)[C@@H](NC(=O)c2ccc(-c3ccccc3)cc2)c2cc(OCCCO)ccc2N1C(=O)Cc1ccc(OC)cc1 : 0.128
